Sourced from ChEMBL document CHEMBL3433997

TARGET OF ASSAY: Glucose transporter (Leishmania mexicana) (UniProt O61059)
TEST PROTOCOL: ST_JUDE_LEISH: Cytotoxicity at 2uM final concentration against transgenic Leishmania Mexicana promastigotes LmGT2 that are glucose transport deficient and complemented with the L. Mexicana glucose transporter 2. Activity is measured by DNA content using SYBR green in vitro
Assay type: functional
Listed here: items and their measured inhibition.
The reply should contain only the number, in %.

COMPOUND: Nc1ncc(-c2cn[nH]c2)cc1-c1nc2ccc(Cl)cc2[nH]1
TARGET OF ASSAY: Glucose transporter (Leishmania mexicana) (UniProt O61059)
ENDPOINT RESULT: 3.89

Short answer for `CC(=O)Nc1cccc(C(=O)Nc2nc3ccc(-c4cc(=O)[nH]c(Nc5ccccc5Cl)n4)cc3[nH]2)c1` : inhibition was 5.36

Short answer for `COc1ccc(-c2ccc(S(=O)(=O)Nc3cc4c(cc3OC(C)C)CCN(C)CC4)cc2)cc1` : inhibition was 1.21

Short answer for `O=C(/C=C/c1ccc(Cl)c(Cl)c1)NCCCCCN1CCC(NC(=O)c2cccc(Cl)c2)CC1` : inhibition was 7.71

Short answer for Oc1ccc(Nc2nc(NCC3CCCO3)c3ccccc3n2)cc1 (centres undefined) : inhibition was 1.86

Short answer for `CCOc1ccc(-c2nonc2NC(=O)c2cccc(Cl)c2)cc1OCC` : inhibition was -0.71

Short answer for `COc1ccc(-c2ccc(CNCc3ccccc3)cc2)cc1S(=O)(=O)NCCN1CCCC1` : inhibition was -1.36

Short answer for `Cc1ccc(Cn2ncc(NC3CCNCC3)c(Cl)c2=O)cc1NC(=O)Nc1ccc(-c2ccccc2)cc1` : inhibition was 5.29

Short answer for O=C(/C=C/c1ccccc1)N1CCOC(CCN2CCC(c3ccccc3)CC2)(c2ccc(Cl)c(Cl)c2)C1 (centres undefined) : inhibition was 7.43

###

Listed here: items and their measured inhibition.
TARGET OF ASSAY: Glucose transporter (Leishmania mexicana)
TEST PROTOCOL: ST_JUDE_LEISH: Cytotoxicity at 2uM final concentration against transgenic Leishmania Mexicana promastigotes LmGT2 that are glucose transport deficient and complemented with the L. Mexicana glucose transporter 2. Activity is measured by DNA content using SYBR green in vitro
Format: functional
The reply should contain only the number, in %.

COMPOUND: CC(=O)c1c[nH]c(C(=O)Nc2ccc(-c3cn4ccccc4n3)cc2)c1
TARGET OF ASSAY: Glucose transporter (Leishmania mexicana)
ENDPOINT RESULT: 10.2
//
COMPOUND: Cc1ccc(CN2CCC(Oc3cccc(NC(=O)c4ccc(C(F)(F)F)cc4)c3)CC2)cc1
TARGET OF ASSAY: Glucose transporter (Leishmania mexicana)
ENDPOINT RESULT: 3.6
//
COMPOUND: O=C(/C=C/c1ccc(Cl)c(Cl)c1)N1CCN(C(=O)Nc2cccc(C(F)(F)F)c2)CC1
TARGET OF ASSAY: Glucose transporter (Leishmania mexicana)
ENDPOINT RESULT: 2.79
//
COMPOUND: CN(C)CCC1CCN(CCS(=O)(=O)c2cccc(Nc3ccc(-c4ccsc4)cn3)c2)CC1
TARGET OF ASSAY: Glucose transporter (Leishmania mexicana)
ENDPOINT RESULT: 1.59
//
COMPOUND: Cn1nccc1C(=O)NCCNCc1cccc(-c2ccc(-c3nc4ccccc4[nH]3)cc2)c1
TARGET OF ASSAY: Glucose transporter (Leishmania mexicana)
ENDPOINT RESULT: -1.98
//
COMPOUND: CCCCCC(C)C(C)c1cc(O)c2c(c1)OC(C)(C)CC2(O)c1ccnn1C (centres undefined)
TARGET OF ASSAY: Glucose transporter (Leishmania mexicana)
ENDPOINT RESULT: 3.24
//
COMPOUND: Oc1ccc2nc(NCCCc3ccccc3)nc(NCCc3ccccc3)c2c1
TARGET OF ASSAY: Glucose transporter (Leishmania mexicana)
ENDPOINT RESULT: -0.15
//
COMPOUND: COC(=O)c1cccc(CNCc2cccc(-c3csc(-c4nc5ccccc5[nH]4)c3)c2)c1
TARGET OF ASSAY: Glucose transporter (Leishmania mexicana)
ENDPOINT RESULT: 6.38

Short answer for `O=C(CCc1cccnc1)Nc1cccc(-c2ccc(-c3nc4cc(C(F)(F)F)ccc4[nH]3)cc2)c1` : inhibition was 6.85
